Tested on: MALME-3M melanoma
Experiment: NCI-60 one-dose screen, 48 h (100 = growth as untreated, 0 = no growth, -100 = all killed)
Details: 10 µM unless noted
This is part of a sample that, as a whole, favours compounds with a hit. Of some 83,000 tested, about 20% had one in any assay.
Reported values of growth for individual entries

>  <compound>
c1ccc(C(c2nc3ncncc3[nH]2)N2CSc3nc4ncncc4n3C2)cc1 (stereo not drawn)

>  <growth (%)>
58.5

$$$$
>  <compound>
COc1cc(/C=N/NC(=O)c2cn(C3CC3)c3c(OC)c(N4CC5CCCNC5C4)c(F)cc3c2=O)ccc1O (stereo not drawn)

>  <growth (%)>
89.2

$$$$
>  <compound>
CC1=NC2=NC(=O)/C(=C3/N=C(C)C=C(c4ccccc4)N3N)NN2C(c2ccccc2)=C1

>  <growth (%)>
44.3

$$$$

----------
Tested on: UACC-62 melanoma
Assay: NCI-60 one-dose screen, 48 h (100 = growth as untreated, 0 = no growth, -100 = all killed)
Conditions: 10 µM unless noted
About 83,000 compounds went through this panel and 20% of them were active in at least one assay; those are over-represented in the sample as a whole. Active and inactive are the calls of the source. The calls were made as follows: active = growth percent below 10; inactive = the rest.

>  <compound>
COc1ccccc1N1CCN(C2=CC(=O)C(C)=C(C)C2=O)CC1

>  <growth>
99.5% (inactive)

$$$$
>  <compound>
COc1cc(-c2nn(C(C)(C)C)cc2-c2ccnc(NCCCNS(=O)(=O)c3ccc(C)cc3)n2)ccc1Cl

>  <growth>
68.3% (inactive)

$$$$
>  <compound>
COC(=O)c1ccc(NC2=C/C(=N/S(=O)(=O)c3ccc(C(=O)O)cc3)c3ccccc3C2=O)cc1

>  <growth>
-24.1% (active)

$$$$
>  <compound>
Cc1ccc(CSc2nc(-c3ccc(Cl)cc3)c(C#N)c(N3CCOCC3)n2)cc1

>  <growth>
73.1% (inactive)

$$$$
>  <compound>
O=C(CN1CCN(c2cc(=O)n(-c3ccccc3)c3ccccc23)CC1)Nc1nc(-c2ccccc2)cs1

>  <growth>
63.9% (inactive)

$$$$
>  <compound>
O=C(NCCN1CCCC1)c1ccc(-c2nc3ccc4[nH]ncc4c3c3c2CCCC3)cc1

>  <growth>
18.4% (inactive)

$$$$
>  <compound>
CCC(CC)N1C(=O)/C(=c2\sc3n(c2=O)NC2C(N=3)N(CC)C(=O)N2CC)c2ccccc21 (stereo not given)

>  <growth>
39.9% (inactive)

$$$$
>  <compound>
CC(C)(C)CC(C)(C)n1nnnc1C(Nc1nccs1)c1cc2cccc3ccc4cccc1c4c32 (stereo not given)

>  <growth>
68.4% (inactive)

$$$$
>  <compound>
C[C@@H]1C[C@H]2C(=O)O[C@@H](C)C(NC(=O)[C@H](Cc3cc(F)cc(F)c3)NC(=O)Nc3ccc(Cl)cc3F)C(=O)N3CCC[C@H]3C(=O)N3CCCC[C@H]3C(=O)N[C@@H](CO)C(=O)N2C1 (stereo not given in full)

>  <growth>
29.5% (inactive)

$$$$
>  <compound>
C#Cc1nc(C(C)=O)cs1

>  <growth>
94.3% (inactive)

$$$$

----------
Reported values of growth for individual entries
Test system: UO-31 renal
Assay: NCI-60 one-dose screen, 48 h (100 = growth as untreated, 0 = no growth, -100 = all killed)
Conditions: 10 µM unless noted
About 83,000 compounds went through this panel and 20% of them were active in at least one assay; those are over-represented in the sample as a whole.

>  <chemical.string>
O=C(O)c1cn(C2CC2)c2cc(N3CCN(C(=O)CN4C(=O)CSC4=O)CC3)c(F)cc2c1=O

>  <growth, %>
56.4

$$$$
>  <chemical.string>
CC(=O)c1nnn(-c2c(C(=O)n3nc(C)cc3C)sc(=S)n2-c2ccccc2)c1C

>  <growth, %>
79.8

$$$$
>  <chemical.string>
COc1cc(-c2nn(C(C)(C)C)cc2-c2ccnc(NCCCNS(=O)(=O)c3ccccc3)n2)ccc1Cl

>  <growth, %>
39.4

$$$$
>  <chemical.string>
O=S(=O)(NCCCNc1nccc(-n2cnc3ccccc32)n1)c1ccc(C(F)(F)F)cc1

>  <growth, %>
60.7

$$$$
>  <chemical.string>
NS(=O)(=O)c1ccc(-n2cc(CN3CCNCC3)nn2)cc1

>  <growth, %>
92.9

$$$$

----------
Tested on: NCI-H522 lung
Experiment: NCI-60 one-dose screen, 48 h (100 = growth as untreated, 0 = no growth, -100 = all killed)
Details: 10 µM unless noted
About 83,000 compounds went through this panel and 20% of them were active in at least one assay; those are over-represented in the sample as a whole.
property: growth (%)

>  <chemical.string>
CN1CCN(Cc2ccc(NC(=O)c3cncc(C#Cc4cnc5ccc(N6CCN(C)CC6)nn45)c3)cc2C(F)(F)F)CC1

>  <property>
growth

>  <units.label>
%

>  <numeric.value>
82.1

$$$$
>  <chemical.string>
O=C1[C@H]2Cc3c([nH]c4ccccc34)[C@@H](c3ccc(Cl)cc3)N2C(=O)CN1C1CCN(Cc2ccccc2)CC1

>  <property>
growth

>  <units.label>
%

>  <numeric.value>
81.1

$$$$
>  <chemical.string>
COc1ccc(NC2=C(Cl)C(=O)c3nc(C)ccc3C2=O)cc1OC

>  <property>
growth

>  <units.label>
%

>  <numeric.value>
78.8

$$$$

----------
System: LOX IMVI melanoma
Assay: NCI-60 one-dose screen, 48 h (100 = growth as untreated, 0 = no growth, -100 = all killed)
Details: 10 µM unless noted
The panel holds about 83,000 compounds, 20% with a hit somewhere; the sample as a whole holds those more often.
Reported values of growth for individual entries

>  <molecule>
CCO/C=N/C1=C(C#N)C(c2ccc(F)cc2)c2sc3c(C)cccc3c2O1 (stereo not drawn)

>  <target.or.system>
LOX IMVI melanoma

>  <growth, %>
9.65

$$$$
>  <molecule>
COc1ccc(-n2c(/C=C3\C(=O)Nc4ccccc43)ccc2CO)cc1

>  <target.or.system>
LOX IMVI melanoma

>  <growth, %>
94.6

$$$$
>  <molecule>
O=C(Nc1ccc2c(ccn2Cc2ccccn2)c1)c1cnccn1

>  <target.or.system>
LOX IMVI melanoma

>  <growth, %>
98.3

$$$$
>  <molecule>
Cn1ccnc1C(=O)/C=C/c1ccc(NC(=O)c2c(F)c(F)c(F)c(F)c2F)cc1

>  <target.or.system>
LOX IMVI melanoma

>  <growth, %>
81.6

$$$$
>  <molecule>
NC(N)=Nc1ccc(Oc2cccc(Nc3ccc(Cl)c(C(F)(F)F)c3)c2)cn1

>  <target.or.system>
LOX IMVI melanoma

>  <growth, %>
-83.8

$$$$
>  <molecule>
NC(N)=Nc1ccc(Oc2cccc(Nc3cccc(C(F)(F)F)c3)c2)cn1

>  <target.or.system>
LOX IMVI melanoma

>  <growth, %>
-90.3

$$$$
>  <molecule>
CCn1c(SCC(=O)Nc2cccc(C(=O)/C=C/c3cc(OC)c(OC)c(OC)c3)c2)nc2ccccc2c1=O

>  <target.or.system>
LOX IMVI melanoma

>  <growth, %>
-73.6

$$$$
>  <molecule>
NC(N)=Nc1ccc(Oc2cccc(Oc3ccc(Cl)c(C(F)(F)F)c3)c2)cn1

>  <target.or.system>
LOX IMVI melanoma

>  <growth, %>
-88.6

$$$$
>  <molecule>
CCOP(=O)(OCC)OC[C@]12CCC(C)(C)C=C1[C@H]1CC[C@@H]3[C@@]4(C)CC[C@H](OP(=O)(OCC)OCC)C(C)(C)[C@@H]4CC[C@@]3(C)[C@]1(C)CC2

>  <target.or.system>
LOX IMVI melanoma

>  <growth, %>
-90.1

$$$$
>  <molecule>
CCCCCc1ccc(S(=O)(=O)Nc2cc(-c3csc(NC(=O)CN4CCN(C)CC4)n3)ccc2N2CCN(C)CC2)cc1

>  <target.or.system>
LOX IMVI melanoma

>  <growth, %>
-82.9

$$$$
>  <molecule>
CCN1CCN(Cc2ccc(C(=O)Nc3ccc(C)c(Oc4ccc(-c5[nH]nc6ncnc(N)c56)cc4)c3)cc2C(F)(F)F)CC1

>  <target.or.system>
LOX IMVI melanoma

>  <growth, %>
57.2

$$$$
>  <molecule>
CC1(C)CC[C@]2(C(=O)O)CC[C@]3(C)C(=CC[C@@H]4[C@@]5(C)CC/C(=N\OCCC#N)C(C)(C)[C@@H]5CC[C@]43C)[C@@H]2C1

>  <target.or.system>
LOX IMVI melanoma

>  <growth, %>
91.8

$$$$
>  <molecule>
NC(N)=Nc1ccc(Oc2ccc(Nc3ccc(Cl)c(C(F)(F)F)c3)cc2)cc1

>  <target.or.system>
LOX IMVI melanoma

>  <growth, %>
-96

$$$$
>  <molecule>
O=C(NNc1nc2cc(F)c(F)cc2n2cccc12)c1cnccn1

>  <target.or.system>
LOX IMVI melanoma

>  <growth, %>
11.4

$$$$
>  <molecule>
CCOc1ccc(NC2=C(Cl)C(=O)c3nc(C)ccc3C2=O)cc1

>  <target.or.system>
LOX IMVI melanoma

>  <growth, %>
-76.4

$$$$
>  <molecule>
NS(=O)(=O)c1ccc(Nc2nc(Nc3ccccc3)nc3nnc(SCC(=O)NC4CCCCC4)n23)cc1

>  <target.or.system>
LOX IMVI melanoma

>  <growth, %>
101

$$$$
>  <molecule>
Cc1c(Cl)cccc1S(=O)(=O)Nc1ccc2c(c1)C(=O)N(C1CCC(=O)NC1=O)C2=O (stereo not drawn)

>  <target.or.system>
LOX IMVI melanoma

>  <growth, %>
122

$$$$
>  <molecule>
COc1ccc(-n2c(SCc3n[nH]c(=S)o3)nc3ccc(Cl)cc3c2=O)cc1

>  <target.or.system>
LOX IMVI melanoma

>  <growth, %>
101

$$$$
